Reported OD450 nm is given for each of the following binders.
# target desc: T1, hFc-tagged human 4-1BB extracellular domain protein (4-1BB-hFc) (human, UniProt Q07011 24-186, limits assumed)
# T1 construct: also called immunogen A; 4-1BB^ECD-hFc; not shown: human IgG Fc fragment (hFc) of the pCpC vector
# run description: ELISA, coated human 4-1BB-hFc; Ab 10 ug/ml
// note: answer is a bare numeric in OD450 nm

binder	OD450 nm (OD450 nm)
172E3E3 (antibody, V domains shown) VH: QVQLQESGPGLVKPSGTLSLTCAVSGGSISSSNWWSWVRQPPGKGLEWIGEIYHSGSTNYNPSLKSRVTISVDKSKNQLSLNLSSVTAADTAVYYCARQGGVAGTLYWYFDLWGRGTLVTVSS VL: DIVMTQSPLSLPVTPGEPASISCRSSQGLLHSNGYNYLDWYLQKPGQSPQLLIYLGSNRASGVPDRFIGSGSGTDFTLKIRRVEAEDVGVYYCMQVLQTPWTFGQGTKVEIK	3.43

Q) Give me measured OD450 nm, please, for this binder: 15G10D4 (antibody, V domains shown) VH: QVQLVESGGGVVQPGRSLRLSCAASGFSFSSYAMHWVRQAPGKGLEWVAIIWYDGSNQYYADSVKGRFTISRDNSKNTLYLQMNSLRAEDTAVYYCARVKQWLVSYFDYWGQGTLVTVSS VL: EIVMTQSPATLSVSPGERATLSCRASQSVSSNLAWYQQKPGQVPRLLIYGASTRATGIPARFSGSGSGTEFSLIISSLQSEDFAVYYCQQYNNWPTFGGGTKVEIK
A) 3.53

Data origin, for the record: patent US20200347144A1
